Assignment: determine reported In vitro activity (%) compared with native peptide: vs GIP for the given binders.
- system.name: T1, human GIP receptor (human, UniProt P48546 22-466)
- T1 sequence (looked up): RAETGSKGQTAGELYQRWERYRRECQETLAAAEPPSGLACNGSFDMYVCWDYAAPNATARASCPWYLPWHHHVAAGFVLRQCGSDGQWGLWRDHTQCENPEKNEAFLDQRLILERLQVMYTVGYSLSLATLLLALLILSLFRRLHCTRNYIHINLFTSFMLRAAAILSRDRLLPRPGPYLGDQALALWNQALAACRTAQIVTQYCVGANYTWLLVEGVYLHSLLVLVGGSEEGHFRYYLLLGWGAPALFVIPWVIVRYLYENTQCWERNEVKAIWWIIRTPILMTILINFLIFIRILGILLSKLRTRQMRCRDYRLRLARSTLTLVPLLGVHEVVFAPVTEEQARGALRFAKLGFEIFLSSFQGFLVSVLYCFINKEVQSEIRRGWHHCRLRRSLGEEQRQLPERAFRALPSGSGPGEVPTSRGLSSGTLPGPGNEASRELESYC
- procedure.details: cell-based or functional assay
Positions of bridges follow the written chain, without caps; N, C: chain ends. Non-standard residues stand in square brackets, D forms with d. No end group written: not given here. *: point of attachment. Acetyl(2-(4-imidazolyl)) = O=C(Cc1c[nH]cn1)*; Aib = CC(C)(N)C(=O)O
Give the quantity in %, number only.

Qu. Request the reported In vitro activity (%) compared with native peptide: vs GIP associated with Y[Aib]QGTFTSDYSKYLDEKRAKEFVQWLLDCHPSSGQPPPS (bridge 16-20; not fully specified) [triple agonist of SEQ ID NO: 97]
Ans. 2.6

Qu. Request the reported In vitro activity (%) compared with native peptide: vs GIP associated with Y[Aib]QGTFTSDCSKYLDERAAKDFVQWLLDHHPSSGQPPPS (bridge 16-20; not fully specified) [triple agonist of SEQ ID NO: 72]
Ans. 1.6

Qu. Request the reported In vitro activity (%) compared with native peptide: vs GIP associated with Y[Aib]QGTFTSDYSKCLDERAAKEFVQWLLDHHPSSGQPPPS (bridge 16-20; not fully specified) [triple agonist of SEQ ID NO: 69]
Ans. 62.8

Qu. Request the reported In vitro activity (%) compared with native peptide: vs GIP associated with {Acetyl(2-(4-imidazolyl))}-[Aib]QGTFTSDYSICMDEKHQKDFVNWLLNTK (bridge 15-19; not fully specified) [triple agonist of SEQ ID NO: 59]
Ans. 4

Qu. Request the reported In vitro activity (%) compared with native peptide: vs GIP associated with Y[Aib]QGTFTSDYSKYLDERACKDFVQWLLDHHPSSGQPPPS (bridge 16-20; not fully specified) [triple agonist of SEQ ID NO: 71]
Ans. 94.7

Qu. Request the reported In vitro activity (%) compared with native peptide: vs GIP associated with H[Aib]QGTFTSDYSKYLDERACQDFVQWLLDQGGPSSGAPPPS (not fully specified) [triple agonist of SEQ ID NO: 27]
Ans. 0.9

Qu. Request the reported In vitro activity (%) compared with native peptide: vs GIP associated with Y[Aib]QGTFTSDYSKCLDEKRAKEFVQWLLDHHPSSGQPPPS (bridge 16-20; not fully specified) [triple agonist of SEQ ID NO: 22]
Ans. 59.7

Qu. Request the reported In vitro activity (%) compared with native peptide: vs GIP associated with H[Aib]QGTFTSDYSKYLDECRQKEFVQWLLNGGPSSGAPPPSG (bridge 16-20) [triple agonist of SEQ ID NO: 37]
Ans. 2.2

Qu. Request the reported In vitro activity (%) compared with native peptide: vs GIP associated with H[Aib]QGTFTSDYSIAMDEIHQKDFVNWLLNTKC (bridge 16-20; not fully specified) [triple agonist of SEQ ID NO: 35]
Ans. 1.3

Qu. Request the reported In vitro activity (%) compared with native peptide: vs GIP associated with {Acetyl(2-(4-imidazolyl))}-[Aib]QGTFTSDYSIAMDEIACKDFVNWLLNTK (bridge 15-19; not fully specified) [triple agonist of SEQ ID NO: 61]
Ans. 2.8
